- Tested target: recombinant soluble homotrimeric HA, A/Solomon Islands/3/06 H1N1 (Influenza A virus A/Solomon Islands/3/2006(H1N1))
- Test: microarray, transfection SN IgG, trimeric HA
- Condition description: remark: other sources report otherwise
Observable: Trimeric HA Binding: RLU (RLU)
State the answer as a number, implicitly in RLU.

Below, 3 binders whose answers are already recorded.
{"Binder": "TCN-550 (5096_F06) (antibody, V domains shown) VH: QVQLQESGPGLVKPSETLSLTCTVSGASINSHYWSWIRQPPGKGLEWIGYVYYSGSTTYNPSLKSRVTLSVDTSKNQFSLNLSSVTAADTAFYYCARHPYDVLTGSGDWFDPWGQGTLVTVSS VL: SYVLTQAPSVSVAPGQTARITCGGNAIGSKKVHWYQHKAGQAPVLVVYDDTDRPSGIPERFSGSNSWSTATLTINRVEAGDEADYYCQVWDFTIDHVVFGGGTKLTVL", "Observable": "Trimeric HA Binding: RLU", "Meas value": 758}
{"Binder": "TCN-558 (5248_H10b) (antibody, V domains shown) VH: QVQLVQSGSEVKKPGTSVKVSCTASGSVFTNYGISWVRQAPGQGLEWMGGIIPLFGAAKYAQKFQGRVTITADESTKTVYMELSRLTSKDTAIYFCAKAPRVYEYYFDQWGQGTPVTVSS VL: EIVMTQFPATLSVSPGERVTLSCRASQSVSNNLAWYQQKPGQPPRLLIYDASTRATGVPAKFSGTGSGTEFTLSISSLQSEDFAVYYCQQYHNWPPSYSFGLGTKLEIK", "Observable": "Trimeric HA Binding: RLU", "Meas value": 36100}
{"Binder": "TCN-555 (5246_L16) (antibody, V domains shown) VH: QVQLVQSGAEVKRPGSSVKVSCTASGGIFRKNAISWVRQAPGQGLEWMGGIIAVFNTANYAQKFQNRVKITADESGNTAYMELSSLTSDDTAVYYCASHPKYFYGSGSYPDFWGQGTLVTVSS VL: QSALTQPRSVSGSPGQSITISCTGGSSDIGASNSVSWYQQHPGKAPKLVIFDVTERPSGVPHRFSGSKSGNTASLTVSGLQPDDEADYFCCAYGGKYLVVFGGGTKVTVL", "Observable": "Trimeric HA Binding: RLU", "Meas value": 44600}

## Input Recorded Trimeric HA Binding: RLU for TCN-551 (5243_D01) (antibody, V domains shown) VH: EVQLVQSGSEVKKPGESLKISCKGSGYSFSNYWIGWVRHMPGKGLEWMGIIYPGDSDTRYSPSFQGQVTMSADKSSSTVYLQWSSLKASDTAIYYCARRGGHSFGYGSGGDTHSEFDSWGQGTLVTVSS VL: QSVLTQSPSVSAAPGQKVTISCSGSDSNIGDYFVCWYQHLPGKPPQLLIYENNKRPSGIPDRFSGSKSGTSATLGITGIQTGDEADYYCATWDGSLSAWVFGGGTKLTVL , please?
## Output 43500

## Input State the recorded Trimeric HA Binding: RLU for this entry: TCN-557 (5081_A04) (antibody, V domains shown) VH: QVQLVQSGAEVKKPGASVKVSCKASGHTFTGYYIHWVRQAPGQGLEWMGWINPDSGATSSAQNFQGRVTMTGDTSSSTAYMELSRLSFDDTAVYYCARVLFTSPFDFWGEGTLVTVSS VL: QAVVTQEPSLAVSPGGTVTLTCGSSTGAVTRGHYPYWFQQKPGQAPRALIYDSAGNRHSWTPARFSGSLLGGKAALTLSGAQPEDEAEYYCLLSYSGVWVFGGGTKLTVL
## Output 27000
